Origin of measurements: patent US6211215A

- target system: HER2 (Homo sapiens, UniProt P04626)
- assay overview: Inhibition of phosphorylation of receptor tyrosine in human breast cancer cells (2), MCF-7, heregulin-stimulated
- Assay type: cell-based
- Parameters: Human breast cancer cell line MCF-7 was used; endogenous in cells; host or cells: MCF-7
- conditions: MCF7, 25 μM, heregulin control = 100%, read-out: Phosphorylation of receptor tyrosine residue (%)
- Sequence (P04626 23-1255): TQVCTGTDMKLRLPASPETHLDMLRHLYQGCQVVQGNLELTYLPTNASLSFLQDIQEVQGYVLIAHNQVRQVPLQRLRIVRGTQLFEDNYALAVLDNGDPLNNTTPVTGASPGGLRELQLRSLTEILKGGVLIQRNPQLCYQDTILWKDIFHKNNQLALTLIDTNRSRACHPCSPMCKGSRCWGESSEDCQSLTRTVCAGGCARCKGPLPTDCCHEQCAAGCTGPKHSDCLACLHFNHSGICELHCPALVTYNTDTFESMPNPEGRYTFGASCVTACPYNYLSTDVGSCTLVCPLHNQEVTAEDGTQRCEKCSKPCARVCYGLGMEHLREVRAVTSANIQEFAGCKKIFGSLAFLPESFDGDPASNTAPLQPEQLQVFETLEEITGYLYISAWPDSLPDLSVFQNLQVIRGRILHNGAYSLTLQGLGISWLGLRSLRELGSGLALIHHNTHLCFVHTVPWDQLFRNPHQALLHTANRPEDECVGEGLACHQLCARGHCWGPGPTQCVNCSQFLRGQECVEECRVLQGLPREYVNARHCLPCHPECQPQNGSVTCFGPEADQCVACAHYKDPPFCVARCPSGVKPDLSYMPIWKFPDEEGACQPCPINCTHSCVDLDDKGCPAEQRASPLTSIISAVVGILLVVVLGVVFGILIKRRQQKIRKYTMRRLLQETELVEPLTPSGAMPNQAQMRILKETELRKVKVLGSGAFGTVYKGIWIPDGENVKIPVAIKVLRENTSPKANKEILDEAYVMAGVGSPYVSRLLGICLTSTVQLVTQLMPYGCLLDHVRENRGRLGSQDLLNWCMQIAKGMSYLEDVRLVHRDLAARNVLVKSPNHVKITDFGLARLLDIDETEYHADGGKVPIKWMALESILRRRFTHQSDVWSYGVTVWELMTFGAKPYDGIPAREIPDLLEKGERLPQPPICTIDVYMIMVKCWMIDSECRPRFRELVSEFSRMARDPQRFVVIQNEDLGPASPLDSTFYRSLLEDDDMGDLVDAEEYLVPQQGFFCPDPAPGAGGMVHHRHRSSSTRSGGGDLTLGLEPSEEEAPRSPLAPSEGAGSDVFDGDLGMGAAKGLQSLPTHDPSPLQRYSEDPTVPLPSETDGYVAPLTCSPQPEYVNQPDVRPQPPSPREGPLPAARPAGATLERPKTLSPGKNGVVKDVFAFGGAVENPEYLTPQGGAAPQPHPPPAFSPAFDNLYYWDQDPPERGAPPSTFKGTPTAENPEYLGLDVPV
outcome measure: activity at 25 µM (%)

Look over these answered cases.
{"record smiles": "c1csc(-c2nc(COc3ccc(CCCn4ccnc4)cc3)cs2)c1", "readout number": 25}
{"record smiles": "C(=C\\c1nc(COc2ccc(CCCn3ccnc3)cc2)co1)/c1ccccc1", "readout number": 30}

I = Cc1ccc(-c2nc(COc3ccc(CCCn4ccnc4)cc3)co2)s1
II = c1csc(-c2nc(COc3ccc(CCCn4ccnc4)cc3)co2)c1
Inquiry: Endpoint returns whichever of I and II has the numerically higher activity at 25 µM. Refer to your chosen item by its label in the answer.
Reply text: I

* * *

- target system: HER2 (Homo sapiens)
- assay overview: Inhibition of phosphorylation of receptor tyrosine in human breast cancer cells (2), MCF-7, heregulin-stimulated
- Assay type: cell-based
- Parameters: Human breast cancer cell line MCF-7 was used; endogenous in cells; host or cells: MCF-7
- conditions: MCF7, 0.4 μM, heregulin control = 100%, read-out: Phosphorylation of receptor tyrosine residue (%)
outcome measure: activity at 0.4 µM (%)

Look over these answered cases.
{"compound": "C(=C\\c1nc(COc2ccc(CCCn3ccnc3)cc2)co1)/c1ccccc1 [Compound 8]", "outcome measure": "activity at 0.4 µM", "readout number": 67}
{"compound": "Cc1ccc(-c2nc(COc3ccc(CCCn4ccnc4)cc3)co2)s1 [Compound 109]", "outcome measure": "activity at 0.4 µM", "readout number": 92}
{"compound": "c1csc(-c2nc(COc3ccc(CCCn4ccnc4)cc3)co2)c1 [Compound 72]", "outcome measure": "activity at 0.4 µM", "readout number": 96}

I = c1csc(-c2nc(COc3ccc(CCCn4ccnc4)cc3)cs2)c1 [Compound 94]
II = c1csc(-c2nc3cc(COc4ccc(CCCCn5ccnc5)cc4)ccc3o2)c1 [Compound 80]
Inquiry: Endpoint returns whichever of I and II has the numerically higher activity at 0.4 µM. Refer to your chosen item by its label in the answer.
Reply text: I
(I: 93%, II: 46%)

* * *

- Test system: MCF-7
- assay overview: Selective in vitro inhibition of breast cancer and prostate cancer cell growth
- Assay type: cell-based
- conditions: Homo sapiens, MCF7, 72 h; Breast cancer MCF-7; 3 days; SRB; read-out: IC50, inhibition of cell proliferation
outcome measure: IC50 (nM)

Look over these answered cases.
{"record smiles": "Cc1ccc(-c2nc(COc3ccc(CCCn4ccnc4)cc3)co2)s1", "target system": "MCF-7", "IC50, nM": 190}
{"record smiles": "c1csc(-c2nc3cc(COc4ccc(CCCCn5ccnc5)cc4)ccc3o2)c1", "target system": "MCF-7", "IC50, nM": 10}

I = c1csc(-c2nc(COc3ccc(CCCn4ccnc4)cc3)cs2)c1
II = c1csc(-c2nc(COc3ccc(CCCn4ccnc4)cc3)co2)c1
Inquiry: Endpoint returns whichever of I and II has the numerically higher IC50. Refer to your chosen item by its label in the answer.
Reply text: I

* * *

- target system: HER2 (Homo sapiens, UniProt P04626)
- assay overview: Inhibition of the activity of human growth factor receptor (HER2) tyrosine kinase
- conditions: HER2 receptor type tyrosine kinase; ELISA with HER3 substrate; read-out: Concentration of inhibiting HER2 (IC50)
- Sequence (P04626 720-987 limits assumed): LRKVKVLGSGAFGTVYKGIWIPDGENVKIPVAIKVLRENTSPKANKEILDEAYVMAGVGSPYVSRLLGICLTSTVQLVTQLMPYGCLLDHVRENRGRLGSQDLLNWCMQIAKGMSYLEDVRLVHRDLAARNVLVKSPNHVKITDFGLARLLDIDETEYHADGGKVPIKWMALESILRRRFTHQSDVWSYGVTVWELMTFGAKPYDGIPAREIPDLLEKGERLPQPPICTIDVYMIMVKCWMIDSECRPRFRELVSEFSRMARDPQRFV
pIC50: −log10 of the molar value.
outcome measure: pIC50

A = C(=C\c1nc(COc2ccc(CCCCn3cncn3)cc2)co1)/c1ccccc1
B = C(=C\c1nc(COc2ccc(CCCn3ccnc3)cc2)co1)/c1ccccc1
Inquiry: Endpoint returns whichever of A and B has the numerically higher pIC50. Refer to your chosen item by its label in the answer.
Reply text: B

* * *

- System: SKBR3
- assay overview: Selective in vitro inhibition of breast cancer cell growth
- Type: cell-based
- conditions: Homo sapiens, SK-BR-3, 72 h; Mammary cancer SKBR3; 3 days; SRB; read-out: IC50, inhibition of cell proliferation
outcome measure: IC50 (nM)
Write the number in nM without appending the unit.

Inquiry: What measured IC50 goes with C(=C\c1nc(COc2ccc(CCCn3ccnc3)cc2)co1)/c1ccccc1 ?
Reply text: 1000

* * *

- target system: HER2 (Homo sapiens, UniProt P04626)
- assay overview: Inhibition of phosphorylation of receptor tyrosine in human breast cancer cells (2), MCF-7, heregulin-stimulated
- Assay type: cell-based
- Design: Human breast cancer cell line MCF-7 was used; endogenous in cells; host or cells: MCF-7
- conditions: MCF7, 1.6 μM, heregulin control = 100%, read-out: Phosphorylation of receptor tyrosine residue (%)
outcome measure: activity at 1.6 µM (%)

{"record smiles": "c1csc(-c2nc3cc(COc4ccc(CCCCn5ccnc5)cc4)ccc3o2)c1", "units symbol": "%", "activity at 1.6 µM": 40}
{"record smiles": "Cc1ccc(-c2nc(COc3ccc(CCCn4ccnc4)cc3)co2)s1", "units symbol": "%", "activity at 1.6 µM": 89}
{"record smiles": "c1csc(-c2nc(COc3ccc(CCCn4ccnc4)cc3)co2)c1", "units symbol": "%", "activity at 1.6 µM": 48}

a = C(=C\c1nc(COc2ccc(CCCn3ccnc3)cc2)co1)/c1ccccc1
b = c1csc(-c2nc(COc3ccc(CCCn4ccnc4)cc3)cs2)c1
Inquiry: Could you determine which record has the numerically smaller activity at 1.6 µM? Candidates: a and b Refer to your chosen item by its label in the answer.
Reply text: a

* * *

- Test system: MDA-MB-453
- assay overview: Selective in vitro inhibition of breast cancer cell growth
- Type: cell-based
- conditions: Homo sapiens, 72 h; Mammary cancer MDA-MB-453; 3 days; SRB; read-out: IC50, inhibition of cell proliferation
outcome measure: IC50 (nM)
Write the number in nM without appending the unit.

Inquiry: GET /values?readout=IC50&system=MDA-MB-453&item= C(=C\c1nc(COc2ccc(CCCn3ccnc3)cc2)co1)/c1ccccc1 [Compound 8]
Reply text: 250

* * *

- Test system: MDA-MB-453
- assay overview: Selective in vitro inhibition of breast cancer and prostate cancer cell growth
- Assay type: cell-based
- conditions: Homo sapiens, 72 h; Breast cancer MDA-MB-453; 3 days; SRB; read-out: IC50, inhibition of cell proliferation
pIC50: −log10 of the molar value.
outcome measure: pIC50

a = c1csc(-c2nc3cc(COc4ccc(CCCCn5ccnc5)cc4)ccc3o2)c1
b = c1csc(-c2nc(COc3ccc(CCCn4ccnc4)cc3)cs2)c1
c = c1csc(-c2nc(COc3ccc(CCCn4ccnc4)cc3)co2)c1
Inquiry: // TODO: order the 3 molecules above by pIC50, descending Please express your ranking as an ordered list of the labels.
Reply text: a, c, b
(a: 7.05, c: 5.77, b: 5.32)

* * *

- System: T-47D
- assay overview: Selective in vitro inhibition of breast cancer cell growth
- Format: cell-based
- conditions: Homo sapiens, T47D, 72 h; Mammary cancer T-47D; 3 days; SRB; read-out: IC50, inhibition of cell proliferation
outcome measure: IC50 (µM)
Write the number in µM without appending the unit.

Inquiry: GET /values?readout=IC50&system=T-47D&item= C(=C\c1nc(COc2ccc(CCCn3ccnc3)cc2)co1)/c1ccccc1
Reply text: 0.57
